Measured pKd, listed per entry for reference.
STUDY_SYSTEM: T1, human Aβ (1-40) peptide (human)
T1 construct: also called Aβ1-40 fibers
PROCEDURE_SUMMARY: SPR, kinetic fit, immobilized fibers;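 note: surface plasmon resonance on a Biacore chip bearing in vitro formed Aβ1-40 or Aβ1-42 fibers, KD taken as koff/kon by fitting time-resolved sensor responses, based on total Fab concentration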
Formally, pKd is defined as -log10 of the concentration c, with c in mol/L.

I have this binder here, MS-Roche #3.4H7×3.4L9 Fab (Fab, V domains shown, cross-cloned Fab) VH: QLVESGGGLVQPGGSLRLSCAASGFTFSSYAMSWVRQAPGKGLEWVSVISETGKNIYYADSVKGRFTISRDNSKNTLYLQMNSLRAEDTAVYYCARLTHYARYYRYFDVWGQGTLVTVSS VL: DIVLTQSPATLSLSPGERATLSCRASRRIHVYYLAWYQQKPGQAPRLLIYGASSRATGVPARFSGSGSGTDFTLTISSLEPEDFATYYCQQTYDYPPTFGQGTKVEIKR , and I need its recorded pKd.
8.58

# pKd lookup, item MS-Roche #3.4H3×3.4L7 Fab (Fab, V domains shown, cross-cloned Fab) VH: QLVESGGGLVQPGGSLRLSCAASGFTFSSYAMSWVRQAPGKGLEWVSVISQTGRKIYYADSVKGRFTISRDNSKNTLYLQMNSLRAEDTAVYYCARLTHYARYYRYFDVWGQGTLVTVSS VL: DIVLTQSPATLSLSPGERATLSCRASQRLGRLYLAWYQQKPGQAPRLLIYGASSRATGVPARFSGSGSGTDFTLTISSLEPEDFATYYCQQTYDYPPTFGQGTKVEIKR
9.04

What pKd value was documented for this binder, MS-Roche #3.6H5×3.6L1 Fab (Fab, V domains shown, cross-cloned Fab) VH: QLVESGGGLVQPGGSLRLSCAASGFTFSSYAMSWVRQAPGKGLEWVSAISESGKTKYYADSVKGRFTISRDNSKNTLYLQMNSLRAEDTAVYYCARLTHYARYYRYFDVWGQGTLVTVSS VL: DIVLTQSPATLSLSPGERATLSCRASQFIQRFYLAWYQQKPGQAPRLLIYGASSRATGVPARFSGSGSGTDFTLTISSLEPEDFAVYYCQQTYNYPPTFGQGTKVEIKR ?
8.90

All values here come from patent US20100172907A1.
